Assay: Fluorescence titration curves against sugar (dissociation constant), D-glucose
Assay type: binding
Conditions: stilbenes; pH 8.0; 33.3% methanol; read-out: KD D-glucose
measurement kind: Kd (mM)

molecule smiles	measurement kind	meas value
COc1ccc(/C=C/c2ccc(B(O)O)cc2)cc1	Kd	43

(a) N#Cc1ccc(/C=C/c2ccc(B(O)O)cc2)cc1
(b) OB(O)c1ccc(/C=C/c2ccccc2)cc1
(c) CN(C)c1ccc(/C=C/c2ccc(B(O)O)cc2)cc1
Put the items in sequence by Kd, from largest down. # answer = labels listed in requested order
c, a, b
(c: 98 mM, a: 18.3 mM, b: 11 mM)

---

Assay: Titration curves against pH (pKa of the boronic acid group) with and without sugar
Assay type: physicochemical
Conditions: aqueous buffer solutions with methanol, stilbenes; solution contained 33.3% methanol; no sugar; read-out: pKa Alone
measurement kind: pKa

molecule smiles	pKa
CN(C)c1ccc(/C=C/c2ccc(B(O)O)cc2)cc1	9.14
OB(O)c1ccc(/C=C/c2ccccc2)cc1	8.86
N#Cc1ccc(/C=C/c2ccc(B(O)O)cc2)cc1	8.17
COc1ccc(/C=C/c2ccc(B(O)O)cc2)cc1	8.58

---

Test: Titration curves against pH (pKa of the boronic acid group) with and without sugar
Assay type: physicochemical
Conditions: aqueous buffer solutions with methanol, stilbenes; 33.3% methanol; 50 mM D-fructose; read-out: pKa +D-fructose (50 mM)
measurement kind: pKa

molecule smiles	pKa
OB(O)c1ccc(/C=C/c2ccccc2)cc1	6.4
CN(C)c1ccc(/C=C/c2ccc(B(O)O)cc2)cc1	6.61
N#Cc1ccc(/C=C/c2ccc(B(O)O)cc2)cc1	5.84
COc1ccc(/C=C/c2ccc(B(O)O)cc2)cc1	6.36

---

Assay: Stability and dissociation constants of 7 and 8 for D-glucose from steady-state and frequency-domain fluorescence
Type: binding
Settings: 1:1 complex with D-glucose; methanol/phosphate buffer pH 7.7 (1:3); 30 MHz; read-out: KD, Phase Angle
measurement kind: Kd (mM)

(a) CN(Cc1ccccc1B(O)O)Cc1c2ccccc2cc2ccccc12 [compound 7]
(b) CN(Cc1ccccc1B(O)O)Cc1c2ccccc2c(CN(C)Cc2ccccc2B(O)O)c2ccccc12 [compound 8]
I'm curious whether a or b has the smaller Kd number. Which is it? Could you answer with the label of the item you picked?
b

---

Assay: Titration curves against pH (pKa of the boronic acid group) with and without sugar
Format: physicochemical
Details: aqueous buffer solutions with methanol, compounds 4 and 5; 66.6% methanol; 50 mM fructose; read-out: pKa fructose (50 mM)
measurement kind: pKa

molecule smiles	pKa
CN(C)c1ccc(/C=C/C=C/c2ccc(B(O)O)cc2)cc1	6.19
CN(C)c1ccc(/C=C/C=C/C=C/c2ccc(B(O)O)cc2)cc1	6.1

---

Experiment: Stability and dissociation constants of 7 and 8 for D-glucose from steady-state and frequency-domain fluorescence
Assay type: binding
Details: 1:1 complex with D-glucose; methanol/phosphate buffer pH 7.7 (1:3); read-out: KD, Steady State Intensity
pKd: −log10 of the molar value.
measurement kind: pKd

(a) CN(Cc1ccccc1B(O)O)Cc1c2ccccc2c(CN(C)Cc2ccccc2B(O)O)c2ccccc12
(b) CN(Cc1ccccc1B(O)O)Cc1c2ccccc2cc2ccccc12
I'm curious whether a or b has the smaller pKd number. Which is it? Could you answer with the label of the item you picked?
b
(b: 1.71, a: 3.10)

---

Assay: Fluorescence titration curves against sugar (dissociation constant), D-galactose
Assay type: binding
Conditions: stilbenes; pH 8.0; 33.3% methanol; read-out: KD D-galactose
pKd: −log10 of the molar value.
measurement kind: pKd

(I) COc1ccc(/C=C/c2ccc(B(O)O)cc2)cc1
(II) CN(C)c1ccc(/C=C/c2ccc(B(O)O)cc2)cc1
(III) OB(O)c1ccc(/C=C/c2ccccc2)cc1
(IV) N#Cc1ccc(/C=C/c2ccc(B(O)O)cc2)cc1
# desc sort on pKd across 4 compounds # answer = labels listed in requested order
III, IV, I, II
(III: 2.22, IV: 1.90, I: 1.59, II: 1.31)

---

Test: Titration curves against pH (pKa of the boronic acid group) with and without sugar
Assay type: physicochemical
Conditions: aqueous buffer solutions with methanol, stilbenes; 33.3% methanol; 50 mM D-glucose; read-out: pKa +D-glucose (50 mM)
measurement kind: pKa

compound	pKa
CN(C)c1ccc(/C=C/c2ccc(B(O)O)cc2)cc1 [DSTBA]	8.34
COc1ccc(/C=C/c2ccc(B(O)O)cc2)cc1 [MSTBA, 4′-methoxystilbene-4-boronic acid]	7.88
N#Cc1ccc(/C=C/c2ccc(B(O)O)cc2)cc1 [CSTBA, 4′-cyanostilbene-4-boronic acid]	7.3
OB(O)c1ccc(/C=C/c2ccccc2)cc1 [STBA, stilbene-4-boronic acid]	7.63

---

Assay: Fluorescence titration curves against sugar (dissociation constant), D-fructose
Type: binding
Details: compounds 4 and 5; phosphate buffer pH 8.0/methanol 1:2 (v/v)
measurement kind: Kd (µM)

molecule smiles	measurement kind	u	meas value
CN(C)c1ccc(/C=C/C=C/c2ccc(B(O)O)cc2)cc1	Kd	µM	1120
CN(C)c1ccc(/C=C/C=C/C=C/c2ccc(B(O)O)cc2)cc1	Kd	µM	840

---

Experiment: Titration curves against pH (pKa of the boronic acid group) with and without sugar
Format: physicochemical
Conditions: aqueous buffer solutions with methanol, compounds 4 and 5; 66.6% methanol; 170 mM glucose; read-out: pKa glucose (170 mM)
measurement kind: pKa

molecule smiles	pKa
CN(C)c1ccc(/C=C/C=C/c2ccc(B(O)O)cc2)cc1	6.97
CN(C)c1ccc(/C=C/C=C/C=C/c2ccc(B(O)O)cc2)cc1	6.86

---

Test: Fluorescence titration curves against sugar (dissociation constant), D-glucose
Assay type: binding
Conditions: compounds 4 and 5; phosphate buffer pH 8.0/methanol 1:2 (v/v); read-out: KD glucose
pKd: −log10 of the molar value.
measurement kind: pKd

molecule smiles	measurement kind	meas value
CN(C)c1ccc(/C=C/C=C/C=C/c2ccc(B(O)O)cc2)cc1	pKd	1.82
CN(C)c1ccc(/C=C/C=C/c2ccc(B(O)O)cc2)cc1	pKd	1.77

---

Assay: Fluorescence titration curves against sugar (dissociation constant), D-galactose
Format: binding
Settings: compounds 4 and 5; phosphate buffer pH 8.0/methanol 1:2 (v/v); read-out: KD galactose
measurement kind: Kd (mM)

molecule smiles	Kd [mM]
CN(C)c1ccc(/C=C/C=C/C=C/c2ccc(B(O)O)cc2)cc1	5.4
CN(C)c1ccc(/C=C/C=C/c2ccc(B(O)O)cc2)cc1	5.9

---

Experiment: Titration curves against pH (pKa of the boronic acid group) with and without sugar
Format: physicochemical
Details: aqueous buffer solutions with methanol, compounds 4 and 5; buffer with 66.6% (v/v) methanol; read-out: pKa no sugar
measurement kind: pKa

compound	meas value
CN(C)c1ccc(/C=C/C=C/C=C/c2ccc(B(O)O)cc2)cc1 [compound 5]	8.75
CN(C)c1ccc(/C=C/C=C/c2ccc(B(O)O)cc2)cc1 [compound 4]	8.9
